Data origin, for the record: the supplement of paper PMC10307832

# Tested on: NCI-H838
# assay remarks: relative viability (nuclei count vs DMSO), 5 days (fraction); higher = more cells survive
# condition context: first compound 0.02 µM
Record form. Attribute: relative viability. Fill in for each entry.
API doc: respond with a numeric literal and nothing else, no unit.

## Input Fill in the recorded relative viability for this compound, with NCI-H838 as test system: CC(=O)O[C@@]12CO[C@@H]1C[C@H](O)[C@@]1(C)C(=O)[C@H](O)C3=C(C)[C@@H](OC(=O)[C@H](O)[C@@H](NC(=O)OC(C)(C)C)c4ccccc4)C[C@@](O)([C@@H](OC(=O)c4ccccc4)[C@H]21)C3(C)C [Docetaxel] + CC(C)C[C@H](NC(=O)[C@H](Cc1ccccc1)NC(=O)c1cnccn1)B(O)O [Bortezomib] (partner 0.002 µM)
## Output 0.0975

## Input Fill in the recorded relative viability for this compound, with NCI-H838 as test system: CC(=O)O[C@@]12CO[C@@H]1C[C@H](O)[C@@]1(C)C(=O)[C@H](O)C3=C(C)[C@@H](OC(=O)[C@H](O)[C@@H](NC(=O)OC(C)(C)C)c4ccccc4)C[C@@](O)([C@@H](OC(=O)c4ccccc4)[C@H]21)C3(C)C [Docetaxel] + COc1cc2c(Oc3ccc(NC(=O)C4(C(=O)Nc5ccc(F)cc5)CC4)cc3F)ccnc2cc1OCCCN1CCOCC1 [Foretinib] (partner 0.25 µM)
## Output 0.162

## Input Fill in the recorded relative viability for this compound, with NCI-H838 as test system: CC(=O)O[C@@]12CO[C@@H]1C[C@H](O)[C@@]1(C)C(=O)[C@H](O)C3=C(C)[C@@H](OC(=O)[C@H](O)[C@@H](NC(=O)OC(C)(C)C)c4ccccc4)C[C@@](O)([C@@H](OC(=O)c4ccccc4)[C@H]21)C3(C)C [Docetaxel] + COc1cccc2cc(-c3nc([C@H]4CC[C@H](C(=O)O)CC4)n4ncnc(N)c34)[nH]c12 [OSI-027] (partner 0.5 µM)
## Output 0.134
